Every entry's value here was drawn from paper PMC6308302.

Exercise: state measured Stability: Measured for each of the compounds provided.
assay: Stability tests in rat plasma (QC samples, HPLC-MS); settings: 24h in auto-sampler vials, spiked 2 ng/mL, n=5
Write the number in ng/mL without appending the unit.

Give the measured Stability: Measured for Cc1coc2c1C(=O)C(=O)c1c-2ccc2c(C)cccc12
2.02

Supply measured Stability: Measured of CC(C)=CCC[C@](C)(O[C@@H]1O[C@H](CO)[C@@H](O)[C@H](O)[C@H]1O)[C@H]1CC[C@]2(C)[C@@H]1[C@H](O)C[C@@H]1[C@@]3(C)CC[C@H](O)C(C)(C)[C@@H]3[C@@H](O[C@@H]3O[C@H](CO)[C@@H](O)[C@H](O)[C@H]3O[C@@H]3OC[C@@H](O)[C@H](O)[C@H]3O)C[C@]12C [R1, notoginsenoside R1] in your reply.
1.89

Fill in reported Stability: Measured for this entry: Cc1coc2c1C(=O)C(=O)c1c-2ccc2c1CCCC2(C)C
2.25

Quick one: give measured Stability: Measured for CC(C)=CCC[C@](C)(O[C@@H]1O[C@H](CO)[C@@H](O)[C@H](O)[C@H]1O)[C@H]1CC[C@]2(C)[C@@H]1[C@H](O)C[C@@H]1[C@@]3(C)CC[C@H](O[C@@H]4O[C@H](CO)[C@@H](O)[C@H](O)[C@H]4O[C@@H]4O[C@H](CO)[C@@H](O)[C@H](O)[C@H]4O)C(C)(C)[C@@H]3CC[C@]12C [Rd, ginsenoside Rd]
1.93

Identify the reported Stability: Measured for the following entry. Cc1cccc2c3c(ccc12)C1=C(C(=O)C3=O)[C@@H](C)CO1 [DHTS I, dihydrotanshinone I]
2.21
